The measurements presented in this section are drawn from patent US12473304B2.

# IC50 listing for each entry below
- measured.on: human PAD4 (hPAD4) (Homo sapiens (Human))
- Sequence (Q9UM07 whole entry): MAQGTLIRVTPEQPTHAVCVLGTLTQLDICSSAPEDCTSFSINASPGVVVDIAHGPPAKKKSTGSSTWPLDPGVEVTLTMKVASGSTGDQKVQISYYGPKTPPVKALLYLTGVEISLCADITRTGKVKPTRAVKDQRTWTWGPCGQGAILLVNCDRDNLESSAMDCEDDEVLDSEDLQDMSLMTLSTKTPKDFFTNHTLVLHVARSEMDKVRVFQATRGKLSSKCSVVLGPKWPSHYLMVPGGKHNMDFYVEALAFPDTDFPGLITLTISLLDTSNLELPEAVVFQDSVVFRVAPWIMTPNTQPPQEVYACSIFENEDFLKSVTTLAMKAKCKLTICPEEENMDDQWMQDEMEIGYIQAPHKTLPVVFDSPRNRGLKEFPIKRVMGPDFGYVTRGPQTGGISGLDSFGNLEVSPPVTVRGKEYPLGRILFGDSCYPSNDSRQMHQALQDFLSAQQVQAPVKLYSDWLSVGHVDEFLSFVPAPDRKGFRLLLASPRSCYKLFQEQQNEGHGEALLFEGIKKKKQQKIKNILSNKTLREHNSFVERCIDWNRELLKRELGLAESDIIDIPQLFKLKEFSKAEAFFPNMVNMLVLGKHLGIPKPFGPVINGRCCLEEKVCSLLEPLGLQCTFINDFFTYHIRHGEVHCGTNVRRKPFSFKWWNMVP
- test.summary: RFMS Human PAD4 Functional Assay 1
- conditions.used: RFMS assay 1; 5 nM hPAD4, 250 μM BAEE substrate, 50 μM calcium, 37° C.
I only need the number, in nM, no unit after it.

{"compound": "Cc1c(-c2cc3ccc(N4CCOCC4)nc3n2CC2CC2)nn2cc(C(=O)N3CC4CCC3[C@@H]4N)ccc12 (stereo partly drawn)", "experimental.result": 310}

Answer with the recorded IC50 for the compound listed here: `Cc1c(-c2cc3ccc(N4CCC(N5CCOC5=O)CC4)cc3n2CC2CC2)nn2cc(C(=O)N3CCC[C@@H](N)C3)ccc12`
1090

Answer with the recorded IC50 for the compound listed here: Cc1c(-c2cc3ccc(N4CC(F)(CO)C4)cc3n2CC2CC2)nn2cc(C(=O)N3CC4CCC3[C@@H]4N)ccc12 (stereo partly drawn)
602
